protocol-details: Pharmacokinetics in AAV8-Ctrl mice
condition-label: C57BL/6J, mouse, serum, po, 16.5 mg/kg, AUC(0-t), carvedilol 7.5 mg/kg 0.5 h before aumolertinib 16.5 mg/kg oral (Car+Aum)
measured-quantity: AUC(0-t)
Kindly format the answer as number then unit.

-- ask Item under review: C=CC(=O)Nc1cc(Nc2nccc(-c3cn(C4CC4)c4ccccc34)n2)c(OC)cc1N(C)CCN(C)C [Aumolertinib] . Reported AUC(0-t)?
-- reply 1970 ng·h/mL

* * *

protocol-details: Pharmacokinetics in AAV8-Ctrl mice
condition-label: C57BL/6J, mouse, serum, po, 16.5 mg/kg, AUC(0-t), aumolertinib 16.5 mg/kg oral alone (Aum)
measured-quantity: AUC(0-t) (ng·h/mL)
Could you give me the number in ng·h/mL? Just the number is fine.

-- ask Item under review: C=CC(=O)Nc1cc(Nc2nccc(-c3cn(C4CC4)c4ccccc34)n2)c(OC)cc1N(C)CCN(C)C [Aumolertinib] . Reported AUC(0-t)?
-- reply 1800
